Test system: LXRb:RXRa (NR concentration 270 nM, RXRa partner concentration 90 nM)
Assay: PBM binding z-score (relative to random genomic background probes); higher = stronger binding; sequences stand for … in GC…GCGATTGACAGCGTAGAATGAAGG
Each entry gets Not met if its PBM binding z-score stays under 1, and Met if its PBM binding z-score is 1 or above.

query: Does the reported PBM binding z-score for TATACAGTGTCAAAGGCCAGAGTACGAATGTCGA fall at or above the 1 mark?
result: Not met

query: Does the reported PBM binding z-score for GCTGCTAGGTCAGGTTGGTCCGCTAACGGGTACG fall at or above the 1 mark?
result: Not met

query: Does the reported PBM binding z-score for ATCTCTAGGTAAGACTCAGTTCAGTCAAGAACGC fall at or above the 1 mark?
result: Not met

* * *

Test system: RARb:RXRa (NR concentration 270 nM, RXRa partner concentration 90 nM)
Experiment: PBM binding z-score (relative to random genomic background probes); higher = stronger binding; sequences stand for … in GC…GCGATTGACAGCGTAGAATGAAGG
// classify(record): look up PBM binding z-score in ranges lo: < 1; mid: ≥ 1 and < 4; hi: ≥ 4

See these solved cases before continuing.
SEQ	ASSIGNED LABEL
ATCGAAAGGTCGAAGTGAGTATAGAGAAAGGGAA	mid
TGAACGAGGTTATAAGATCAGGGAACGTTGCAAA	mid
CGTCCAAGGTCAATGATAGGTCAGTGAAAGCATT	hi
TTACCAAGTTGAGCTGAGGTCGTTGATCCAACTC	lo
CCTAGCAGGCCTGGGTCACTCAAGCATTTCGCTT	mid

query: Band of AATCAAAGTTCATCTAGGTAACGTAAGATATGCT ?
result: hi

query: Band of AGAATGAGGTTACCATAGATCAGGGAAACGCTTG ?
result: mid

query: Band of CGTCCAAGGTCTTAGGAGGTCAGTGAAGACAGAT ?
result: mid

query: Band of CGTCAAAGTACAAGGTAACGTAACAGAAAGCAGC ?
result: mid

query: Band of TCAGACAGGTGAAGATAACTCAGGTACGCAGTCG ?
result: mid

* * *

Test system: PPARg:RXRa (NR concentration 180 nM, RXRa partner concentration 90 nM)
Assay: PBM binding z-score (relative to random genomic background probes); higher = stronger binding; sequences stand for … in GC…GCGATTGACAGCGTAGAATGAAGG
Each entry gets Not satisfied if its PBM binding z-score stays under 1, and Satisfied if its PBM binding z-score is 1 or above.

See these solved cases before continuing.
SEQ	ASSIGNED LABEL
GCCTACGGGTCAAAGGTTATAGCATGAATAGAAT	Satisfied
CCGACTGGGGCAAAGGTTACCTTACTCAGTACGA	Satisfied
TCTAGCAGACCAGAGGGTCACTCAAGAGGTACGG	Not satisfied

query: Does the reported PBM binding z-score for CGTCAAAGTTCAACTAAGCTAACGTAAAGCACGC fall at or above the 1 mark?
result: Satisfied

query: Does the reported PBM binding z-score for ACTAGTTGGTCAGCTGAGGTGACACACAATTCGG fall at or above the 1 mark?
result: Satisfied

query: Does the reported PBM binding z-score for GCAGACAGGTGAAACGCAGGTAACTCACGGTGGC fall at or above the 1 mark?
result: Not satisfied

* * *

Tested on: PPARg DBDmut:RXRa IVT, anti-PPARg (DBD mutation: PPARg1 K132A/R137A, NR concentration 270 nM, RXRa partner concentration 90 nM)
Experiment: PBM binding z-score (relative to random genomic background probes); higher = stronger binding; sequences stand for … in GC…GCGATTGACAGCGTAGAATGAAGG
Each entry gets Criterion not met if its PBM binding z-score stays under 0.8, and Criterion met if its PBM binding z-score is 0.8 or above.

See these solved cases before continuing.
SEQ	ASSIGNED LABEL
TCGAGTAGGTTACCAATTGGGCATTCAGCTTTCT	Criterion not met
CCTTCTGGGCCACGAAAGGTCATTGATTCAGTGA	Criterion met
TCATATAGGTAATACAGGTGAAAGTAGGCATCTA	Criterion met
CCTTTCGGGTCAAGGTTATAGCACGGGTGGTACG	Criterion not met
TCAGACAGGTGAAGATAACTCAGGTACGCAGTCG	Criterion not met
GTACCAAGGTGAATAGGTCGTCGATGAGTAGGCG	Criterion not met
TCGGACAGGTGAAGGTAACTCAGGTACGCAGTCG	Criterion not met
TAATATAGGTAAAGGTGAAAGTCGAACGATATGA	Criterion met

query: Does the reported PBM binding z-score for CGTCCAAGGTCAATGCTAGTTCAGTGAAAGCATT fall at or above the 0.8 mark?
result: Criterion met

query: Does the reported PBM binding z-score for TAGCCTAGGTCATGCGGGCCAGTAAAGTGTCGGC fall at or above the 0.8 mark?
result: Criterion not met

query: Does the reported PBM binding z-score for CCTAGCAGGACAATCTGGGTCACTCAAGGCTTGA fall at or above the 0.8 mark?
result: Criterion not met

query: Does the reported PBM binding z-score for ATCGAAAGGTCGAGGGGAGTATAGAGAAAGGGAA fall at or above the 0.8 mark?
result: Criterion met

query: Does the reported PBM binding z-score for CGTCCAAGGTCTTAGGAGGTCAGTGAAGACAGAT fall at or above the 0.8 mark?
result: Criterion not met

query: Does the reported PBM binding z-score for CCTATCAGGCCAATCTGGGTCACTCAAGGCTTGA fall at or above the 0.8 mark?
result: Criterion not met

query: Does the reported PBM binding z-score for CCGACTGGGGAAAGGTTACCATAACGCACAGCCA fall at or above the 0.8 mark?
result: Criterion not met

query: Does the reported PBM binding z-score for ACTTACGGGTCAACGAGGTTATGGCACGCGTATA fall at or above the 0.8 mark?
result: Criterion met

query: Does the reported PBM binding z-score for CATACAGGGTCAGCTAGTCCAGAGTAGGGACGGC fall at or above the 0.8 mark?
result: Criterion not met

query: Does the reported PBM binding z-score for ATAAGTAGGTTACATCCGGGTCATTCAGGCTATG fall at or above the 0.8 mark?
result: Criterion met

* * *

Tested on: PPARg DBDmut:RXRa IVT, anti-PPARg (DBD mutation: PPARg1 K132A/R137A, NR concentration 270 nM, RXRa partner concentration 90 nM)
Test: PBM binding z-score (relative to random genomic background probes); higher = stronger binding; sequences stand for … in GC…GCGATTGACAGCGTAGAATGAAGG
// classify(record): look up PBM binding z-score in ranges low = under -0.5, moderate = from -0.5 up to 0.8, high = 0.8 and over

SEQ	ASSIGNED LABEL
CCGAGTCGGTTATGGGGCATTCAGGCAACGGTGA	low
TCTAGTAGATCAAAGGTTAAGAAAGCCGAAGCCT	moderate
TCGAGTAGGTGACCAATGGGGCATTCAGCTTTCT	moderate
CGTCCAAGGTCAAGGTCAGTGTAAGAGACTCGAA	high
AGAAGGAGGTTAAGATCAGGGAAACAGAATACAT	high

query: Band of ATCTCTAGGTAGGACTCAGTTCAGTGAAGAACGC ?
result: moderate

query: Band of CATACTGGGTCAGCTAGGCCAGAGTAGGGACGGC ?
result: moderate

query: Band of CCAGACAGGTGAAAGCTAACTCAGTCTGGTACGC ?
result: low

* * *

Test system: PPARg DBDmut IVT, anti-PPARg (DBD mutation: PPARg1 K132A/R137A, NR concentration 270 nM)
Assay: PBM binding z-score (relative to random genomic background probes); higher = stronger binding; sequences stand for … in GC…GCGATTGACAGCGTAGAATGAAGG
PBM binding z-score listing for selected sequences.
Kindly provide the number alone.

SEQ	TGT	PBM binding z-score
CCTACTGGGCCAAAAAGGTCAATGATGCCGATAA	PPARg DBDmut IVT, anti-PPARg (DBD mutation: PPARg1 K132A/R137A, NR concentration 270 nM)	-0.775
TCGAGTAGGTTAAGGGCATTCAGAATGGCGTCGA	PPARg DBDmut IVT, anti-PPARg (DBD mutation: PPARg1 K132A/R137A, NR concentration 270 nM)	-1.04
CAGCCTAGGTCACGGCCAGTATAGGAGGAACGTT	PPARg DBDmut IVT, anti-PPARg (DBD mutation: PPARg1 K132A/R137A, NR concentration 270 nM)	-0.166
CAAGACAGGTGAAAGGTAACTCAGTCTGGTACGC	PPARg DBDmut IVT, anti-PPARg (DBD mutation: PPARg1 K132A/R137A, NR concentration 270 nM)	0.183
CGTCCAAGGTCAGAGAGGTCAGTGAGTGCCGAGT	PPARg DBDmut IVT, anti-PPARg (DBD mutation: PPARg1 K132A/R137A, NR concentration 270 nM)	-0.219
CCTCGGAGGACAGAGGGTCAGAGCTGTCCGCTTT	PPARg DBDmut IVT, anti-PPARg (DBD mutation: PPARg1 K132A/R137A, NR concentration 270 nM)	-1.81

query: What measured PBM binding z-score is associated with TCATATAGGTATACAGGTGAAAGTCCGTAAGTTA on PPARg DBDmut IVT, anti-PPARg (DBD mutation: PPARg1 K132A/R137A, NR concentration 270 nM)?
result: 1.54

query: What measured PBM binding z-score is associated with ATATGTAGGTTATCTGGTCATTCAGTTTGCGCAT on PPARg DBDmut IVT, anti-PPARg (DBD mutation: PPARg1 K132A/R137A, NR concentration 270 nM)?
result: 3.41

query: What measured PBM binding z-score is associated with CCTACTGGGCCAAGGTCATTGGTCAGTCAAAGCA on PPARg DBDmut IVT, anti-PPARg (DBD mutation: PPARg1 K132A/R137A, NR concentration 270 nM)?
result: -0.629

query: What measured PBM binding z-score is associated with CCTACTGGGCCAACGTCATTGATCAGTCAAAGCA on PPARg DBDmut IVT, anti-PPARg (DBD mutation: PPARg1 K132A/R137A, NR concentration 270 nM)?
result: -0.52

Values compiled from the supplement of paper PMC6555819.
